Biological target: HLA-B*40:01
Assay: IEDB peptide-MHC binding, purified MHC/competitive/radioactivity; bounds were set here for any values at or beyond the usual limits of such assays
Conditions: source organism: Mammarenavirus guanaritoense
pIC50: −log10 of the molar value.
Endpoint name: pIC50

residue_sequence=ADKNLIKCS numeric_readout=6.50

---

Molecular target: HLA-A*01:01
Assay: IEDB peptide-MHC binding, purified MHC/competitive/radioactivity; bounds were set here for any values at or beyond the usual limits of such assays
Conditions: source organism: Vaccinia virus WR
Endpoint name: IC50 (nM)

residue_sequence=SQIFNIISYI system=HLA-A*01:01 unit_abbreviation=nM numeric_readout=801

---

Molecular target: HLA-A*02:06
Assay: IEDB peptide-MHC binding, purified MHC/competitive/radioactivity; bounds were set here for any values at or beyond the usual limits of such assays
Settings: source organism: SARS-CoV1
Threshold 100 nM. IC50 below it: satisfied. IC50 at it or above: not satisfied.

residue_sequence=QLMCQPILLL system=HLA-A*02:06 class_assignment="not satisfied"
residue_sequence=YLMCLSPLM system=HLA-A*02:06 class_assignment=satisfied
residue_sequence=ITMTTVYHI system=HLA-A*02:06 class_assignment=satisfied
residue_sequence=LIVNSVLLFL system=HLA-A*02:06 class_assignment=satisfied
residue_sequence=IVAALVFLI system=HLA-A*02:06 class_assignment=satisfied
residue_sequence=SLVTSFLLM system=HLA-A*02:06 class_assignment="not satisfied"
residue_sequence=LLLSICLGSL system=HLA-A*02:06 class_assignment="not satisfied"
residue_sequence=FLMSFTILCL system=HLA-A*02:06 class_assignment=satisfied
residue_sequence=LMANLAPHLL system=HLA-A*02:06 class_assignment="not satisfied"
residue_sequence=ALVFLILCFT system=HLA-A*02:06 class_assignment="not satisfied"
residue_sequence=NVLAWLYAA system=HLA-A*02:06 class_assignment=satisfied
residue_sequence=LVIGFLFLA system=HLA-A*02:06 class_assignment=satisfied
residue_sequence=GALDVSASV system=HLA-A*02:06 class_assignment=satisfied
residue_sequence=TLIDFYLCFL system=HLA-A*02:06 class_assignment=satisfied
residue_sequence=KLFTIAMWLL system=HLA-A*02:06 class_assignment="not satisfied"
residue_sequence=FVVFLLVTL system=HLA-A*02:06 class_assignment=satisfied
residue_sequence=FLLNKEMYL system=HLA-A*02:06 class_assignment=satisfied
residue_sequence=MLWCKDGHV system=HLA-A*02:06 class_assignment="not satisfied"
residue_sequence=NMLRIMASL system=HLA-A*02:06 class_assignment=satisfied
residue_sequence=FLAFVVFLLV system=HLA-A*02:06 class_assignment="not satisfied"

---

Target: HLA-A*68:02
Test: IEDB peptide-MHC binding, purified MHC/competitive/radioactivity; bounds were set here for any values at or beyond the usual limits of such assays
Details: source organism: Hepacivirus hominis
The entries below come with measured log10 IC50 values attached.
Endpoint name: log10 IC50 (log10 of the value in µM)

residue_sequence=ALLSCISVPV system=HLA-A*68:02 numeric_readout=0.10
residue_sequence=LIQDWIPPL system=HLA-A*68:02 numeric_readout=0.15
residue_sequence=RLLAPITAYA system=HLA-A*68:02 numeric_readout=-1.03
residue_sequence=VLMTHFFSV system=HLA-A*68:02 numeric_readout=-0.99
residue_sequence=LIVMLLFAGV system=HLA-A*68:02 numeric_readout=0.63
residue_sequence=RLWHYPCTV system=HLA-A*68:02 numeric_readout=0.63
residue_sequence=MLVCGDDLVV system=HLA-A*68:02 numeric_readout=0.49
residue_sequence=QMWKCLIRL system=HLA-A*68:02 numeric_readout=0.51
residue_sequence=MLLAYLVRI system=HLA-A*68:02 numeric_readout=0.26
residue_sequence=YSMAGNWAKV system=HLA-A*68:02 numeric_readout=-1.55
residue_sequence=VLAGGVLAAV system=HLA-A*68:02 numeric_readout=-1.23
residue_sequence=SMMSFSAAL system=HLA-A*68:02 numeric_readout=-0.31
residue_sequence=MVLMTHFFSV system=HLA-A*68:02 numeric_readout=-1.89
residue_sequence=SISGVLWTV system=HLA-A*68:02 numeric_readout=-2.26
residue_sequence=ILMTHFFSIL system=HLA-A*68:02 numeric_readout=0.60
residue_sequence=ILMTHFFSI system=HLA-A*68:02 numeric_readout=-0.73
residue_sequence=FISGIQYLA system=HLA-A*68:02 numeric_readout=-1.92
residue_sequence=VLMVDSFDPV system=HLA-A*68:02 numeric_readout=0.18
residue_sequence=LLSCISVPV system=HLA-A*68:02 numeric_readout=-1.82
residue_sequence=HLFTSMFSL system=HLA-A*68:02 numeric_readout=-0.74
residue_sequence=TSISGVLWTV system=HLA-A*68:02 numeric_readout=-2.66
residue_sequence=SMGNTLTCYV system=HLA-A*68:02 numeric_readout=0.39
residue_sequence=LLIAITAFT system=HLA-A*68:02 numeric_readout=0.02
residue_sequence=ALMIAAQVVV system=HLA-A*68:02 numeric_readout=0.15
residue_sequence=VLIVMLLFA system=HLA-A*68:02 numeric_readout=0.66
residue_sequence=YMLVLAEALI system=HLA-A*68:02 numeric_readout=-0.01
residue_sequence=VLMTHFFSVL system=HLA-A*68:02 numeric_readout=0.67
residue_sequence=YLNTPGLPV system=HLA-A*68:02 numeric_readout=-0.71
residue_sequence=LLALLSCISV system=HLA-A*68:02 numeric_readout=0.39
residue_sequence=KLLIAILGPL system=HLA-A*68:02 numeric_readout=0.63
residue_sequence=SLMAFTASI system=HLA-A*68:02 numeric_readout=-0.55
residue_sequence=RLLLLGLLLL system=HLA-A*68:02 numeric_readout=0.56
residue_sequence=MILMTHFFSI system=HLA-A*68:02 numeric_readout=-0.05
residue_sequence=MMMNWSPTTA system=HLA-A*68:02 numeric_readout=0.06
residue_sequence=LLAPITAYA system=HLA-A*68:02 numeric_readout=-2.82
residue_sequence=LLMCAVHPEL system=HLA-A*68:02 numeric_readout=0.13
residue_sequence=VLVGGVLAAL system=HLA-A*68:02 numeric_readout=-0.82
residue_sequence=TLLGCWSFV system=HLA-A*68:02 numeric_readout=0.25
residue_sequence=YTLLGCWSFV system=HLA-A*68:02 numeric_readout=-0.74
residue_sequence=FMRDEVSFSV system=HLA-A*68:02 numeric_readout=0.47

---

Target: HLA-A*02:03
Experiment: IEDB peptide-MHC binding, purified MHC/competitive/radioactivity; bounds were set here for any values at or beyond the usual limits of such assays
Conditions: source organism: Mammarenavirus whitewaterense
// returns not satisfied unless IC50 is strictly below 1 µM, in which case satisfied

residue_sequence=LNASYITPYV system=HLA-A*02:03 class_assignment="not satisfied"
residue_sequence=LDFAKVASV system=HLA-A*02:03 class_assignment=satisfied
residue_sequence=GLVDVCFWS system=HLA-A*02:03 class_assignment="not satisfied"
residue_sequence=TVIKTLLEV system=HLA-A*02:03 class_assignment=satisfied
residue_sequence=FLLRGPFEAS system=HLA-A*02:03 class_assignment=satisfied
residue_sequence=INISGYNLSL system=HLA-A*02:03 class_assignment="not satisfied"
residue_sequence=YCNYTKFWYV system=HLA-A*02:03 class_assignment=satisfied
residue_sequence=YNLSLSAAV system=HLA-A*02:03 class_assignment="not satisfied"
residue_sequence=CNYTKFWYV system=HLA-A*02:03 class_assignment=satisfied
residue_sequence=KTVAGSFAS system=HLA-A*02:03 class_assignment="not satisfied"

---

Target: HLA-A*02:03
Experiment: IEDB peptide-MHC binding, purified MHC/competitive/radioactivity; bounds were set here for any values at or beyond the usual limits of such assays
Details: source organism: Vaccinia virus WR
# note: boundary value 400 nM maps to not satisfied; IC50 below it maps to satisfied

residue_sequence=TTNNLLEQL system=HLA-A*02:03 class_assignment="not satisfied"
residue_sequence=SALMTLDDL system=HLA-A*02:03 class_assignment="not satisfied"
residue_sequence=KIILFQNNDI system=HLA-A*02:03 class_assignment="not satisfied"
residue_sequence=PVLEKKVCAI system=HLA-A*02:03 class_assignment="not satisfied"
residue_sequence=ELAYYNSCM system=HLA-A*02:03 class_assignment=satisfied
residue_sequence=KTPDYPLIDI system=HLA-A*02:03 class_assignment=satisfied
residue_sequence=KIEDLINQLV system=HLA-A*02:03 class_assignment=satisfied
residue_sequence=VTSPLTGNNT system=HLA-A*02:03 class_assignment="not satisfied"
residue_sequence=SLEATFIDV system=HLA-A*02:03 class_assignment=satisfied
residue_sequence=DTLVKSGLT system=HLA-A*02:03 class_assignment="not satisfied"
residue_sequence=IAMLKSKNI system=HLA-A*02:03 class_assignment="not satisfied"
residue_sequence=TIDNIVTSL system=HLA-A*02:03 class_assignment="not satisfied"
residue_sequence=FTNSQIFNI system=HLA-A*02:03 class_assignment=satisfied
residue_sequence=VLALYSPPLI system=HLA-A*02:03 class_assignment=satisfied
residue_sequence=NVTYNIKPV system=HLA-A*02:03 class_assignment=satisfied
residue_sequence=AVTLNRIKI system=HLA-A*02:03 class_assignment="not satisfied"
residue_sequence=ELTTVFIKYV system=HLA-A*02:03 class_assignment="not satisfied"
residue_sequence=YVEHDPRLV system=HLA-A*02:03 class_assignment="not satisfied"
residue_sequence=STKADAVVA system=HLA-A*02:03 class_assignment="not satisfied"
residue_sequence=WLKDSAIMVA system=HLA-A*02:03 class_assignment="not satisfied"
residue_sequence=RTWKVLSIM system=HLA-A*02:03 class_assignment="not satisfied"
residue_sequence=YVSSSYKDI system=HLA-A*02:03 class_assignment="not satisfied"
residue_sequence=EIMDKEQLL system=HLA-A*02:03 class_assignment="not satisfied"
residue_sequence=GAFMYTKHSM system=HLA-A*02:03 class_assignment="not satisfied"
residue_sequence=IVFGIYKDNL system=HLA-A*02:03 class_assignment="not satisfied"
residue_sequence=QLVKDESIQL system=HLA-A*02:03 class_assignment=satisfied
residue_sequence=TLNTLITLIL system=HLA-A*02:03 class_assignment=satisfied
residue_sequence=QVKELGIAI system=HLA-A*02:03 class_assignment="not satisfied"
residue_sequence=SQFSYKELYV system=HLA-A*02:03 class_assignment=satisfied
residue_sequence=SMYVIPDEL system=HLA-A*02:03 class_assignment=satisfied
residue_sequence=IIPFIAYFVL system=HLA-A*02:03 class_assignment="not satisfied"
residue_sequence=MISTYPGNT system=HLA-A*02:03 class_assignment=satisfied
residue_sequence=NIYRLFTRCA system=HLA-A*02:03 class_assignment=satisfied
residue_sequence=EILRNYLRL system=HLA-A*02:03 class_assignment="not satisfied"
residue_sequence=TILDDNLYKV system=HLA-A*02:03 class_assignment="not satisfied"
residue_sequence=SVGTGILFM system=HLA-A*02:03 class_assignment="not satisfied"
residue_sequence=YIPPCQCTV system=HLA-A*02:03 class_assignment="not satisfied"
residue_sequence=GIKGLDERFV system=HLA-A*02:03 class_assignment="not satisfied"
residue_sequence=IVAAVIIMA system=HLA-A*02:03 class_assignment="not satisfied"
residue_sequence=TQVKELGIA system=HLA-A*02:03 class_assignment=satisfied
residue_sequence=LMIGNYFSGV system=HLA-A*02:03 class_assignment=satisfied
residue_sequence=RQDYRRSINV system=HLA-A*02:03 class_assignment=satisfied
residue_sequence=TMKAIEKDRL system=HLA-A*02:03 class_assignment="not satisfied"
